- system-name: Stb5 (UniProt P38699)
- Sequence: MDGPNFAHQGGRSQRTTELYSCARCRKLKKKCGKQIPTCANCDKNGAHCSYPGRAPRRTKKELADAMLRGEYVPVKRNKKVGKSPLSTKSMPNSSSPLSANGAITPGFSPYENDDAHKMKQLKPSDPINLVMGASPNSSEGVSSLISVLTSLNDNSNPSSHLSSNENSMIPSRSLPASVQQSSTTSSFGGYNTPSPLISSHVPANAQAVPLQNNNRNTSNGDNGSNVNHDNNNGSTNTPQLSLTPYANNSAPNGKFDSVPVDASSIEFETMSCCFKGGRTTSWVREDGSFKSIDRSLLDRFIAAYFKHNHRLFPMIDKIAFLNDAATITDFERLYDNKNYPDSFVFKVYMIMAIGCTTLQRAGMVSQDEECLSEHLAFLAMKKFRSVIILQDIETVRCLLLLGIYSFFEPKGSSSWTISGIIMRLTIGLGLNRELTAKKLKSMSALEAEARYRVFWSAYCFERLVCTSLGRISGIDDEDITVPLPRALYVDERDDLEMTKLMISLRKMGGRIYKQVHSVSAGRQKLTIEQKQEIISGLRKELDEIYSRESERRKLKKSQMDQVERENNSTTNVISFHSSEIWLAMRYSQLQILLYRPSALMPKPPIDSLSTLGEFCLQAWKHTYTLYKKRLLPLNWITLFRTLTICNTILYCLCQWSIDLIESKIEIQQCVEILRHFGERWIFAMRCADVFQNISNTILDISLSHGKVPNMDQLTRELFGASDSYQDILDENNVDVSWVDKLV
- method-notes: PBM E-score (8-mer binding enrichment) (E-score (-0.5 to 0.5)); higher = stronger / more preferred TF binding
- condition: protein concentration: 200 nM; construct: GST-full length
Whole data set: some 33,000 sequences, median “E-score (-0.5 to 0.5)” near -0.054, cut for the highest 2% near 0.35. The entries come from a sample that favours the highest values as a whole.
readout-label: PBM E-score

record_sequence=AAGCGGAG reading=0.252
record_sequence=GCCGCCAA reading=0.24
record_sequence=AATACTGA reading=-0.19
record_sequence=TGGACCAA reading=-0.112
record_sequence=GAGTCCGC reading=0.371
record_sequence=CATAGCGC reading=0.161
record_sequence=ACCCCGTC reading=0.381
record_sequence=AGACTTAA reading=-0.288
record_sequence=GTCCGCAA reading=0.196
record_sequence=ACGTGCGA reading=-0.0649
record_sequence=CCAGGAGG reading=-0.238
record_sequence=CCCATGAA reading=-0.0849
record_sequence=CTGCATCA reading=-0.327
record_sequence=ACCCCGTG reading=0.367
record_sequence=CTCTTGAC reading=-0.182
record_sequence=ACTCGTCA reading=-0.163
record_sequence=CTCCGCTA reading=0.349
record_sequence=ATCCGCTA reading=0.155
record_sequence=GGTTGTAA reading=0.0915
record_sequence=ACCGCCAT reading=0.265
record_sequence=ACCCCGTA reading=0.301
record_sequence=CCCGACTA reading=0.312
record_sequence=CTAAAAGC reading=0.0851
record_sequence=ATTGCAGA reading=-0.201
record_sequence=CCCCTCAC reading=-0.231
record_sequence=ACGAGAAT reading=0.00633
record_sequence=CCCGCCGG reading=0.39
record_sequence=AAGCGGAT reading=0.297
record_sequence=ATCCGCCA reading=0.18
record_sequence=GTCCGCTA reading=0.374
record_sequence=AATGACTC reading=-0.235
record_sequence=CGACTTAA reading=-0.0485
record_sequence=ACCGCCAG reading=0.368
record_sequence=GACAAAGA reading=-0.0701
record_sequence=GAGCGGAA reading=0.308
record_sequence=GAGCAATA reading=-0.118
record_sequence=GAGCGGCC reading=0.293

All figures here come from the supplement of paper PMC3334620.
